Target: LRRK2 G2019S (Homo sapiens, UniProt Q5S007, G2019S)
Sequence (Q5S007 whole entry G2019S): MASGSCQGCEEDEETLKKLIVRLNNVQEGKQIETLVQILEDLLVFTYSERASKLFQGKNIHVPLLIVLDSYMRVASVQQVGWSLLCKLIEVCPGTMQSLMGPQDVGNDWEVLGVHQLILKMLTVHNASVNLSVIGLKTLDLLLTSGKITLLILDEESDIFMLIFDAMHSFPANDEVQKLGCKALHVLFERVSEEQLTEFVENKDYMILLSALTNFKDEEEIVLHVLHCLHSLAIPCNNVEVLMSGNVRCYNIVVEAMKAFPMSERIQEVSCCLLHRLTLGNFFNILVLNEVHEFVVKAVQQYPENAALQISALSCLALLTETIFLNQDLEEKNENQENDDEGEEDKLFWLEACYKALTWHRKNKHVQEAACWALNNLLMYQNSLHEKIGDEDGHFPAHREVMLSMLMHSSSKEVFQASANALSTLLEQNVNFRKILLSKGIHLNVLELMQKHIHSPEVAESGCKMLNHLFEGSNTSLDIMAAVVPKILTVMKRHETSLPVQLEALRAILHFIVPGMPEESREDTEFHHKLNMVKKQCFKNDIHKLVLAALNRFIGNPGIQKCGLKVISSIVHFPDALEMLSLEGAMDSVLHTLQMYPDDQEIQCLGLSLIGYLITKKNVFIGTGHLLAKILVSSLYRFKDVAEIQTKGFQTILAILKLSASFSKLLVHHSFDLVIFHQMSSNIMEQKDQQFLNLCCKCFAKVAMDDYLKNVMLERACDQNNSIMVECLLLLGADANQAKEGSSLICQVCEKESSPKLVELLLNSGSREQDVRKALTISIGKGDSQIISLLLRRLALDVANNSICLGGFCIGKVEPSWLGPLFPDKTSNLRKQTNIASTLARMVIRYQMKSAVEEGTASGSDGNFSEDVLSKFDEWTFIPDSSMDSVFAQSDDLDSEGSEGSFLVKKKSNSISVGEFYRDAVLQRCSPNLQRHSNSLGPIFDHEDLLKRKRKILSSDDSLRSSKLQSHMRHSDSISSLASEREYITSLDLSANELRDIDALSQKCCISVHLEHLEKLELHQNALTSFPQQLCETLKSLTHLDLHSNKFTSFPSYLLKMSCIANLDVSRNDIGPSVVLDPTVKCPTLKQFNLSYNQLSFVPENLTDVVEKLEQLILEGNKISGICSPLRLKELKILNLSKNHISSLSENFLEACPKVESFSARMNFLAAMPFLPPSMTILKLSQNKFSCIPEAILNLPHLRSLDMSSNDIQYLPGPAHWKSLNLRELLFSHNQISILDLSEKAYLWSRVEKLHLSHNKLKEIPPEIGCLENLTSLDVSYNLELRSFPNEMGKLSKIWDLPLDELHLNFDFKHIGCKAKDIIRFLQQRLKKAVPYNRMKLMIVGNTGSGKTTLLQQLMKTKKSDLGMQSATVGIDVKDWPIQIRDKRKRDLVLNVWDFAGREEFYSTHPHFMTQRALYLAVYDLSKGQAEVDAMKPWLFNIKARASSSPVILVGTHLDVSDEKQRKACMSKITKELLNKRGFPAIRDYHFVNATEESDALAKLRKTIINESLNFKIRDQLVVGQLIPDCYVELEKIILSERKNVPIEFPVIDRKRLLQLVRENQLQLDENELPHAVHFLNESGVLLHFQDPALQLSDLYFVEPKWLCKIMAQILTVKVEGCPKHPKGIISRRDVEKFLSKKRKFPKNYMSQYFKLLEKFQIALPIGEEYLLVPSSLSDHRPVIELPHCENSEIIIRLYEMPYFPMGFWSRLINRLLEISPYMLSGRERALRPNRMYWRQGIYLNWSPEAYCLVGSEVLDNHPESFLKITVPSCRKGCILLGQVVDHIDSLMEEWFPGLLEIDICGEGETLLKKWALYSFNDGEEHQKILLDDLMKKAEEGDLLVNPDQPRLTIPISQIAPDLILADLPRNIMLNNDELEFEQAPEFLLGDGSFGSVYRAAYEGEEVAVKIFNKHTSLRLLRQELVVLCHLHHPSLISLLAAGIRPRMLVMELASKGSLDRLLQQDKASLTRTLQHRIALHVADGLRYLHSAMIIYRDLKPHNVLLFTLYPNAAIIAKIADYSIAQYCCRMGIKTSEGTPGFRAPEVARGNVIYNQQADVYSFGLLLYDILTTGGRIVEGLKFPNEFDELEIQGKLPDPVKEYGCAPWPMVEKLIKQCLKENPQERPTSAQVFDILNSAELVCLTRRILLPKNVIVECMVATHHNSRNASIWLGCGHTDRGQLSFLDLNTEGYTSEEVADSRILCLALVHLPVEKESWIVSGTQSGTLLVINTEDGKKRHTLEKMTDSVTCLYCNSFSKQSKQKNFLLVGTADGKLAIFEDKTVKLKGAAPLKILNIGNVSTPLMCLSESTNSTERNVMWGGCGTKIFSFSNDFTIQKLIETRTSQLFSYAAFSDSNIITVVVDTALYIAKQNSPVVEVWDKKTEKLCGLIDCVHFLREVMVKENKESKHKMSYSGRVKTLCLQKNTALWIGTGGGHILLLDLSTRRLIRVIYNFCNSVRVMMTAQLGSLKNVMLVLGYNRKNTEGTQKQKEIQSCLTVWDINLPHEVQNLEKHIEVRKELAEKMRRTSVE
Experiment: LRRK2 G2019S Km ATP LanthaScreen assay
Type: biochemical
Details: read-out: LRRK2 pIC50 (converted)
Lab note: compare IC50 with 0.1 nM, writing true if less and false if equal or more.

>>> print(df.to_string())
                                   compound  label
0  CCOC1CC2(C1)CC2C(=O)Nc1cc2cc(C3CCN(C4(C)COCC4F)CC3)c(C)cc2cn1 (single isomer, unassigned) [Ex-16.5]   true
1  CC(C)(O)C1CC1C(=O)Nc1cc2cc(C3CCN(C4(C)CCOC4)CC3)c(Cl)cc2cn1 (single isomer, unassigned) [Ex-6.15]  false
2  CC1OCCC1N1CCC(c2cc3cc(NC(=O)C4CC4)ncc3cc2Cl)CC1 (single isomer, unassigned) [Ex-9.10]  false
3  Cn1cc(C(=O)Nc2cc3cc(C4CCN([C@]5(C)COC[C@@H]5O)CC4)c(Cl)cc3cn2)cn1 (single isomer, unassigned) [Ex-12.7]  false

Request: Given the entry CC(C)(O)C1CC1C(=O)Nc1cc2cc(C3CCN(C4(C)COCC4O)CC3)c(Cl)cc2cn1 (single isomer, unassigned) [Ex-1.21] , would its reported IC50 be below 0.1 nM?
Response: true

Request: Given the entry CC1(N2CCC(c3cc4cc(NC(=O)C5COC6(CCC6)C5)ncc4cc3Cl)CC2)COCC1O (single isomer, unassigned) [Ex-4.18] , would its reported IC50 be below 0.1 nM?
Response: false
